Test system: 20S CP
Construct: purchased South Bay
Measurement protocol: TAS-1 biochemical assay (20S CP stimulation)
Design: key: % of DMSO control rate of TAS-1 hydrolysis
Condition context: percent stimulation of 20S CP, rate of TAS-1 hydrolysis normalized against DMSO; compounds tested at 10 μM; 5 nM 20S CP
Non-standard residues stand in square brackets, D forms with d. Residues, ends and D or L forms follow the SMILES beside them. aThr = C[C@H](O)[C@H](N)C(=O)O; dPra = C#CC[C@@H](N)C(=O)O; dDap = NC[C@@H](N)C(=O)O
Experimental endpoint: TAS-1

* C#CC[C@H]1NC(=O)[C@H]([C@@H](C)O)NC(=O)[C@@H](C)NC(=O)[C@H](CCCNC(=N)N)NC(=O)[C@@H](Cc2ccccc2)NC(=O)[C@H](Cc2ccccc2)NC1=O [CyPPS14, TXFFRA [SEQ ID NO: 14]] (cyclo(T[dPra]F[dF]R[dA])) | 387.9
* CC(C)C[C@H]1NC(=O)[C@H]([C@@H](C)O)NC(=O)[C@@H](CN)NC(=O)[C@H](CCCNC(=N)N)NC(=O)[C@@H](Cc2ccccc2)NC(=O)[C@H](Cc2ccccc2)NC1=O [CyPPS23, TLFFRX [SEQ ID NO: 23]] (cyclo(T[dL]F[dF]R[dDap])) | 352.4
* CC(C)[C@H]1NC(=O)[C@H]([C@@H](C)O)NC(=O)[C@@H](C)NC(=O)[C@H](CCCNC(=N)N)NC(=O)[C@@H](Cc2ccccc2)NC(=O)[C@H](Cc2ccccc2)NC1=O [CyPPS13, TVFFRA [SEQ ID NO: 13]] (cyclo(T[dV]F[dF]R[dA])) | 422.4
* CC(C)C[C@H]1NC(=O)[C@H](CC(=O)O)NC(=O)[C@@H](C)NC(=O)[C@H](CCCNC(=N)N)NC(=O)[C@@H](Cc2ccccc2)NC(=O)[C@H](Cc2ccccc2)NC1=O [CyPPS8, DLFFRA [SEQ ID NO: 8]] (cyclo(D[dL]F[dF]R[dA])) | 372.2
* CC(C)C[C@H]1NC(=O)[C@H]([C@H](C)O)NC(=O)[C@@H](C)NC(=O)[C@H](CCCNC(=N)N)NC(=O)[C@@H](Cc2ccccc2)NC(=O)[C@H](Cc2ccccc2)NC1=O [CyPPS1, TLFFRA [SEQ ID NO: 1]] (cyclo(F[dF]R[dA][aThr][dL])) | 339.5

###

Tested on: cytosolic proteasome in HEK293 T cells
Construct: endogenous in cells; host or cells: HEK 293T
Measurement protocol: Flow cytometry assay of proteasome stimulation in cellulo (epoxomicin probe)
Assay type: cell-based
Condition context: 10 μM stimulator, 2.5 μM epoxomicin probe, 1 hour, flow cytometry (FITC)
From the text: Flow cytometry allows for the study of proteasomal activity in physiologically relevant conditions and presents a high-throughput alternative to traditional gel electrophoresis and western blotting techniques. To test the assay, the covalent fluorescent-based probe was applied in HEK293 T cells to quantify proteasome stimulation of CyPPSs alone and in the presence of the known proteasome stimulator miconazole and the known proteasome inhibitor MG132. […]
Non-standard residues stand in square brackets, D forms with d. Residues, ends and D or L forms follow the SMILES beside them. aThr = C[C@H](O)[C@H](N)C(=O)O; dPra = C#CC[C@@H](N)C(=O)O; dDap = NC[C@@H](N)C(=O)O
Experimental endpoint: In-Cellulo

Would you please look over these solved cases?
• CC(C)C[C@H]1NC(=O)[C@H]([C@H](C)O)NC(=O)[C@@H](C)NC(=O)[C@H](CCCNC(=N)N)NC(=O)[C@@H](Cc2ccccc2)NC(=O)[C@H](Cc2ccccc2)NC1=O [CyPPS1, TLFFRA [SEQ ID NO: 1]] (cyclo(F[dF]R[dA][aThr][dL])) = 235.1
• CC(C)C[C@H]1NC(=O)[C@H]([C@@H](C)O)NC(=O)[C@@H](CN)NC(=O)[C@H](CCCNC(=N)N)NC(=O)[C@@H](Cc2ccccc2)NC(=O)[C@H](Cc2ccccc2)NC1=O [CyPPS23, TLFFRX [SEQ ID NO: 23]] (cyclo(T[dL]F[dF]R[dDap])) = 247.3
• CC(C)[C@H]1NC(=O)[C@H]([C@@H](C)O)NC(=O)[C@@H](C)NC(=O)[C@H](CCCNC(=N)N)NC(=O)[C@@H](Cc2ccccc2)NC(=O)[C@H](Cc2ccccc2)NC1=O [CyPPS13, TVFFRA [SEQ ID NO: 13]] (cyclo(T[dV]F[dF]R[dA])) = 173.7

(1) CC(C)C[C@H]1NC(=O)[C@H](CC(=O)O)NC(=O)[C@@H](C)NC(=O)[C@H](CCCNC(=N)N)NC(=O)[C@@H](Cc2ccccc2)NC(=O)[C@H](Cc2ccccc2)NC1=O [CyPPS8, DLFFRA [SEQ ID NO: 8]] (cyclo(D[dL]F[dF]R[dA]))
(2) C#CC[C@H]1NC(=O)[C@H]([C@@H](C)O)NC(=O)[C@@H](C)NC(=O)[C@H](CCCNC(=N)N)NC(=O)[C@@H](Cc2ccccc2)NC(=O)[C@H](Cc2ccccc2)NC1=O [CyPPS14, TXFFRA [SEQ ID NO: 14]] (cyclo(T[dPra]F[dF]R[dA]))
Inquiry: Which of the two items, 1 and 2 , has the greater recorded In-Cellulo? Your choice should be expressed through its label.
Reply text: 2
(2: 231.4, 1: 161.0)

###

System: 20S CP
Construct: purchased South Bay
Measurement protocol: TAS-1 biochemical assay (20S CP stimulation)
Condition context: TAS-1 assay
Non-standard residues stand in square brackets, D forms with d. dPhe(4-F) = N[C@H](Cc1ccc(F)cc1)C(=O)O
Experimental endpoint: 20S CP stimulatory activity (in words, SAR compared to CyPPS1)

- TDFFRA [SEQ ID NO: 10] (cyclo(T[dD]F[dF]R[dA]); SMILES C[C@H]1NC(=O)[C@H](CCCNC(=N)N)NC(=O)[C@@H](Cc2ccccc2)NC(=O)[C@H](Cc2ccccc2)NC(=O)[C@@H](CC(=O)O)NC(=O)[C@H]([C@@H](C)O)NC1=O) [CyPPS10, cyclic peptide; AA1 Thr, AA2 D-Asp, AA3 Phe, AA4 D-Phe, AA5 Arg, AA6 D-Ala]: decreased activity
- TLFXRA [SEQ ID NO: 18] (cyclo(T[dL]F[dPhe(4-F)]R[dA]); SMILES CC(C)C[C@H]1NC(=O)[C@H]([C@@H](C)O)NC(=O)[C@@H](C)NC(=O)[C@H](CCCNC(=N)N)NC(=O)[C@@H](Cc2ccc(F)cc2)NC(=O)[C@H](Cc2ccccc2)NC1=O) [CyPPS18, cyclic peptide; AA1 Thr, AA2 D-Leu, AA3 Phe, AA4 D-Phe (4F), AA5 Arg, AA6 D-Ala]: decreased activity
- TKFFRA [SEQ ID NO: 11] (cyclo(T[dK]F[dF]R[dA]); SMILES C[C@H]1NC(=O)[C@H](CCCNC(=N)N)NC(=O)[C@@H](Cc2ccccc2)NC(=O)[C@H](Cc2ccccc2)NC(=O)[C@@H](CCCCN)NC(=O)[C@H]([C@@H](C)O)NC1=O) [CyPPS11, cyclic peptide; AA1 Thr, AA2 D-Lys, AA3 Phe, AA4 D-Phe, AA5 Arg, AA6 D-Ala]: decreased activity

###

Hemolysis for assorted compounds
System: human red blood cells
Measurement protocol: Hemolysis assay
Format: cell-based
Condition context: percent hemolysis, 1 hour at 37° C., table title 15 uM, method 20 μM, in %
Non-standard residues stand in square brackets, D forms with d. Residues, ends and D or L forms follow the SMILES beside them. aThr = C[C@H](O)[C@H](N)C(=O)O; dPra = C#CC[C@@H](N)C(=O)O; dDap = NC[C@@H](N)C(=O)O
Note: the reply should be a number with no unit written.

* CC(C)[C@H]1NC(=O)[C@H]([C@@H](C)O)NC(=O)[C@@H](C)NC(=O)[C@H](CCCNC(=N)N)NC(=O)[C@@H](Cc2ccccc2)NC(=O)[C@H](Cc2ccccc2)NC1=O [CyPPS13, TVFFRA [SEQ ID NO: 13]] (cyclo(T[dV]F[dF]R[dA])) | 5
* CC(C)C[C@H]1NC(=O)[C@H]([C@H](C)O)NC(=O)[C@@H](C)NC(=O)[C@H](CCCNC(=N)N)NC(=O)[C@@H](Cc2ccccc2)NC(=O)[C@H](Cc2ccccc2)NC1=O [CyPPS1, TLFFRA [SEQ ID NO: 1]] (cyclo(F[dF]R[dA][aThr][dL])) | 13
* C#CC[C@H]1NC(=O)[C@H]([C@@H](C)O)NC(=O)[C@@H](C)NC(=O)[C@H](CCCNC(=N)N)NC(=O)[C@@H](Cc2ccccc2)NC(=O)[C@H](Cc2ccccc2)NC1=O [CyPPS14, TXFFRA [SEQ ID NO: 14]] (cyclo(T[dPra]F[dF]R[dA])) | 2

Inquiry: I have this compound here, CC(C)C[C@H]1NC(=O)[C@H](CC(=O)O)NC(=O)[C@@H](C)NC(=O)[C@H](CCCNC(=N)N)NC(=O)[C@@H](Cc2ccccc2)NC(=O)[C@H](Cc2ccccc2)NC1=O [CyPPS8, DLFFRA [SEQ ID NO: 8]] (cyclo(D[dL]F[dF]R[dA])) , and I need its recorded Hemolysis.
Reply text: 0

Inquiry: Which Hemolysis value belongs to CC(C)C[C@H]1NC(=O)[C@H]([C@@H](C)O)NC(=O)[C@@H](CN)NC(=O)[C@H](CCCNC(=N)N)NC(=O)[C@@H](Cc2ccccc2)NC(=O)[C@H](Cc2ccccc2)NC1=O [CyPPS23, TLFFRX [SEQ ID NO: 23]] (cyclo(T[dL]F[dF]R[dDap])) ?
Reply text: 20
